All values here come from patent US9907859B2.

test: in vivo; conditions: both, cynomolgus monkey, iv, 10 mg/kg, AUCINF—obs
property: AUC(0-inf)
Please give the number followed by its unit.

Enquiry: Please give the measured AUC(0-inf) for this compound: O=C(NN1C(=O)C2C3C=CC(C4CC34)C2C1=O)c1ccc(C(F)(F)F)cc1 (stereo not shown)
Return: 21300 ng·h/mL

====

experiment: in vivo; conditions: both, cynomolgus monkey, po, 3 mg/kg
property: half-life (h)
Your answer is read as h, so omit the unit and give the number.

Enquiry: Please give the measured half-life for this molecule: O=C(NN1C(=O)C2C3C=CC(C4CC34)C2C1=O)c1ccc(C(F)(F)F)cc1 (stereo not shown) [ST-246]
Return: 9.9

====

assay: in vivo; details: both, cynomolgus monkey, iv, 20 mg/kg, CL
property: clearance (mL/min/kg)
Your answer is read as mL/min/kg, so omit the unit and give the number.

Enquiry: Please give the measured clearance for this compound: O=C(NN1C(=O)C2C3C=CC(C4CC34)C2C1=O)c1ccc(C(F)(F)F)cc1 (stereo not shown)
Return: 5.88

====

assay: in vivo; conditions: both, cynomolgus monkey, iv, 10 mg/kg, T1/2
property: half-life (min)
Your answer is read as min, so omit the unit and give the number.

Enquiry: Please give the measured half-life for this molecule: O=C(NN1C(=O)C2C3C=CC(C4CC34)C2C1=O)c1ccc(C(F)(F)F)cc1 (stereo not shown) [ST-246]
Return: 516

====

assay: in vivo; settings: both, cynomolgus monkey, po, 0.3 mg/kg
property: Tmax (h)
Your answer is read as h, so omit the unit and give the number.

Enquiry: Please give the measured Tmax for this compound: O=C(NN1C(=O)C2C3C=CC(C4CC34)C2C1=O)c1ccc(C(F)(F)F)cc1 (stereo not shown)
Return: 2.5

====

assay: in vivo; conditions: both, cynomolgus monkey, iv, 15 mg/kg, AUCINF—obs
property: AUC(0-inf) (ng·h/mL)
Your answer is read as ng·h/mL, so omit the unit and give the number.

Enquiry: Please give the measured AUC(0-inf) for this compound: O=C(NN1C(=O)C2C3C=CC(C4CC34)C2C1=O)c1ccc(C(F)(F)F)cc1 (stereo not shown)
Return: 32500

====

assay: in vivo; details: both, cynomolgus monkey, po, 10 mg/kg
property: CL/F (mL/min/kg)
Your answer is read as mL/min/kg, so omit the unit and give the number.

Enquiry: Please give the measured CL/F for this compound: O=C(NN1C(=O)C2C3C=CC(C4CC34)C2C1=O)c1ccc(C(F)(F)F)cc1 (stereo not shown)
Return: 15.3

====

experiment: in vivo; settings: both, cynomolgus monkey, po, 30 mg/kg
property: Tmax (h)
Your answer is read as h, so omit the unit and give the number.

Enquiry: Please give the measured Tmax for this molecule: O=C(NN1C(=O)C2C3C=CC(C4CC34)C2C1=O)c1ccc(C(F)(F)F)cc1 (stereo not shown)
Return: 3.6

====

assay: in vivo; conditions: both, cynomolgus monkey, iv, 30 mg/kg, AUCINF—obs
property: AUC(0-inf) (µg·h/mL)
Your answer is read as µg·h/mL, so omit the unit and give the number.

Enquiry: Please give the measured AUC(0-inf) for this compound: O=C(NN1C(=O)C2C3C=CC(C4CC34)C2C1=O)c1ccc(C(F)(F)F)cc1 (stereo not shown) [ST-246]
Return: 100

====

experiment: in vivo; conditions: male, New Zealand White, rabbit, iv, 60 mg/kg, AUC0-24
property: AUC(0-t) (ng·h/mL)
Your answer is read as ng·h/mL, so omit the unit and give the number.

Enquiry: Please give the measured AUC(0-t) for this compound: O=C(NN1C(=O)C2C3C=CC(C4CC34)C2C1=O)c1ccc(C(F)(F)F)cc1 (stereo not shown) [ST-246]
Return: 72300

====

assay: in vivo; settings: female, New Zealand White, rabbit, iv, 3 mg/kg, AUC0-24
property: AUC(0-t) (ng·h/mL)
Your answer is read as ng·h/mL, so omit the unit and give the number.

Enquiry: Please give the measured AUC(0-t) for this compound: O=C(NN1C(=O)C2C3C=CC(C4CC34)C2C1=O)c1ccc(C(F)(F)F)cc1 (stereo not shown)
Return: 3210

====

assay: in vivo; settings: female, CD-1, mouse, iv, 3 mg/kg, Cmax
property: Cmax (ng/mL)
Your answer is read as ng/mL, so omit the unit and give the number.

Enquiry: Please give the measured Cmax for this compound: O=C(NN1C(=O)C2C3C=CC(C4CC34)C2C1=O)c1ccc(C(F)(F)F)cc1 (stereo not shown) [ST-246]
Return: 16700

====

assay: in vivo; settings: female, mouse, iv, 30 mg/kg, Cmax
property: Cmax (µg/mL)
Your answer is read as µg/mL, so omit the unit and give the number.

Enquiry: Please give the measured Cmax for this compound: O=C(NN1C(=O)C2C3C=CC(C4CC34)C2C1=O)c1ccc(C(F)(F)F)cc1 (stereo not shown)
Return: 120

====

assay: in vivo; conditions: female, CD-1, mouse, iv, 75 mg/kg, AUC0-24
property: AUC(0-t) (µg·h/mL)
Your answer is read as µg·h/mL, so omit the unit and give the number.

Enquiry: Please give the measured AUC(0-t) for this molecule: O=C(NN1C(=O)C2C3C=CC(C4CC34)C2C1=O)c1ccc(C(F)(F)F)cc1 (stereo not shown) [ST-246]
Return: 1250

====

test: in vivo; details: both, cynomolgus monkey, po, 3 mg/kg, Cmax
property: Cmax
Please give the number followed by its unit.

Enquiry: Please give the measured Cmax for this molecule: O=C(NN1C(=O)C2C3C=CC(C4CC34)C2C1=O)c1ccc(C(F)(F)F)cc1 (stereo not shown)
Return: 496 ng/mL

====

assay: in vivo; settings: female, CD-1, mouse, iv, 30 mg/kg, Cmax
property: Cmax (µg/mL)
Your answer is read as µg/mL, so omit the unit and give the number.

Enquiry: Please give the measured Cmax for this molecule: O=C(NN1C(=O)C2C3C=CC(C4CC34)C2C1=O)c1ccc(C(F)(F)F)cc1 (stereo not shown) [ST-246]
Return: 127

====

experiment: in vivo; settings: both, New Zealand White, rabbit, iv, 3 mg/kg, Cmax
property: Cmax (ng/mL)
Your answer is read as ng/mL, so omit the unit and give the number.

Enquiry: Please give the measured Cmax for this compound: O=C(NN1C(=O)C2C3C=CC(C4CC34)C2C1=O)c1ccc(C(F)(F)F)cc1 (stereo not shown)
Return: 3030

====

experiment: in vivo; conditions: female, BALB/c, mouse, po, 300 mg/kg
property: half-life (min)
Your answer is read as min, so omit the unit and give the number.

Enquiry: Please give the measured half-life for this compound: O=C(NN1C(=O)C2C3C=CC(C4CC34)C2C1=O)c1ccc(C(F)(F)F)cc1 (stereo not shown) [ST-246]
Return: 246

====

assay: in vivo; details: male, New Zealand White, rabbit, iv, 1 mg/kg, T1/2
property: half-life (h)
Your answer is read as h, so omit the unit and give the number.

Enquiry: Please give the measured half-life for this compound: O=C(NN1C(=O)C2C3C=CC(C4CC34)C2C1=O)c1ccc(C(F)(F)F)cc1 (stereo not shown) [ST-246]
Return: 1.1

====

test: in vivo; conditions: female, CD-1, mouse, iv, 3 mg/kg
property: clearance (mL/min/kg)
Your answer is read as mL/min/kg, so omit the unit and give the number.

Enquiry: Please give the measured clearance for this compound: O=C(NN1C(=O)C2C3C=CC(C4CC34)C2C1=O)c1ccc(C(F)(F)F)cc1 (stereo not shown) [ST-246]
Return: 0.717

====

assay: in vivo; details: both, New Zealand White, rabbit, iv, 3 mg/kg, AUC0-24 hr
property: AUC(0-t) (ng·h/mL)
Your answer is read as ng·h/mL, so omit the unit and give the number.

Enquiry: Please give the measured AUC(0-t) for this compound: O=C(NN1C(=O)C2C3C=CC(C4CC34)C2C1=O)c1ccc(C(F)(F)F)cc1 (stereo not shown)
Return: 2380

====

experiment: in vivo; settings: female, BALB/c, mouse, iv, 30 mg/kg, AUC0-24
property: AUC(0-t) (µg·h/mL)
Your answer is read as µg·h/mL, so omit the unit and give the number.

Enquiry: Please give the measured AUC(0-t) for this compound: O=C(NN1C(=O)C2C3C=CC(C4CC34)C2C1=O)c1ccc(C(F)(F)F)cc1 (stereo not shown)
Return: 300

====

test: in vivo; conditions: female, CD-1, mouse, iv, 75 mg/kg
property: clearance (mL/min/kg)
Your answer is read as mL/min/kg, so omit the unit and give the number.

Enquiry: Please give the measured clearance for this compound: O=C(NN1C(=O)C2C3C=CC(C4CC34)C2C1=O)c1ccc(C(F)(F)F)cc1 (stereo not shown) [ST-246]
Return: 1

====

experiment: in vivo; details: female, BALB/c, mouse, po, 30 mg/kg, AUC0-24
property: AUC(0-t) (µg·h/mL)
Your answer is read as µg·h/mL, so omit the unit and give the number.

Enquiry: Please give the measured AUC(0-t) for this compound: O=C(NN1C(=O)C2C3C=CC(C4CC34)C2C1=O)c1ccc(C(F)(F)F)cc1 (stereo not shown) [ST-246]
Return: 292
